# testMethodNotes: qHTS assay to identify small molecule inhibitors of chordoma cells - UCH-1 (AID 1259355); further: nearly all actives have a fitted effect of over 55% in size
# assayContext: UCH-1 chordoma viability, CellTiter-Glo, 48 h, combination, with auranofin plus four topoisomerase inhibitors; series mostly up to 46.1 µM
Results filed as inconclusive are left out. Calls of active or inactive are those of the source. The call rests on the fitted dose curve; in most records, active means well fitted cell-killing curve with a large enough effect; inconclusive means small, poorly fitted or top-dose-only effect, or effect the other way; inactive means no such curve, though single readings can be large or run the other way.
Respond only with the outcome that fits, drawn from 1 (active), 0 (inactive)

Task item: Hi, do you know how CO[C@@]12[C@H](COC(N)=O)C3=C(C(=O)C(C)=C(N)C3=O)N1C[C@@H]1N[C@@H]12 came out in this test?
Reply: 1

Task item: // outcome(item) with item = Nc1nc(N)nc(-c2cc(Cl)ccc2Cl)n1
Reply: 0

Task item: What classification did CC(C)OC(=O)C(C(=O)OC(C)C)=C1SC=CS1 end up with in this test?
Reply: 0

Task item: Any idea what this test logged for NC(N)=NC(N)=NCCc1ccccc1 ?
Reply: 0

Task item: Could you check what this test reported for CCn1cc(C(=O)O)c(=O)c2cc(F)c(N3CCNCC3)nc21 ?
Reply: 0

Task item: Which outcome did this test record for the compound CCCc1nc(C)c2c(=O)[nH]c(-c3cc(S(=O)(=O)N4CCN(CC)CC4)ccc3OCC)nn12 ?
Reply: 0

Task item: Hello, I am checking results. What call was entered for CS(=O)(=O)c1ccc([C@@H](O)[C@@H](CO)NC(=O)C(Cl)Cl)cc1 ?
Reply: 0

Task item: Please share the test call associated with O=NN(CCCl)C(=O)NC1CCCCC1 .
Reply: 0

Task item: Outcome logged for NCCCC(O)(P(=O)(O)O)P(=O)(O)O in this assay:
Reply: 0

---

# testMethodNotes: Quantitative High-Throughput drug screen in 47 multiple myeloma cell lines against the NCATS MIPE library collection: MM1S_ATCC cell viability assay (AID 1918980); further: nearly all actives have a fitted effect of over 45% in size
# assayContext: MM1S myeloma viability, CellTiter-Glo ATP luminescence, 48 h; series mostly up to 45.8 µM
Results filed as inconclusive are left out. Active and inactive are the calls of the source. The call rests on the fitted dose curve; in most records, active means well fitted cell-killing curve with a large enough effect; inconclusive means small, poorly fitted or top-dose-only effect, or effect the other way; inactive means no such curve, though single readings can be large or run the other way.
One label from this list, please: 1 (yes) (active), 0 (no) (inactive)

Task item: What did this assay record as the result for OCc1ccc(-c2nn(Cc3ccccc3)c3ccccc23)o1 ?
Reply: 1 (yes)

Task item: What did the test return for O=S(=O)(O)CCS ?
Reply: 0 (no)

Task item: What did this assay record as the result for CCN(C)C(=O)Oc1cccc([C@H](C)N(C)C)c1 ?
Reply: 0 (no)

Task item: Recorded call for O=C(N[C@H](CO)[C@H](O)c1ccc([N+](=O)[O-])cc1)C(Cl)Cl ?
Reply: 0 (no)

Task item: In this assay, the call recorded for C1CCC(C(CC2CCCCN2)C2CCCCC2)CC1 (configuration not stated) was what?
Reply: 1 (yes)

Task item: Each compound tested received a call. Report the one for CC(C)C1CCC(C(=O)N[C@H](Cc2ccccc2)C(=O)O)CC1 (some centres not stated) .
Reply: 1 (yes)

Task item: Hey, what did the test say about CCOC(=O)[C@H](CCc1ccccc1)N[C@H]1CCc2ccccc2N(CC(=O)O)C1=O ?
Reply: 1 (yes)

---

For each of the compounds below, state its viability (% of control).
# testMethodNotes: High-throughput drug toxicity screening in the BPDCN cell line Cal-1 (AID 1224825);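 further: cells exposed to compounds for 48 h; 100% = DMSO and 0% = bortezomib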
# assayContext: Cal-1 BPDCN cell viability, qHTS; at 45.8 µM (top of the series) unless noted

Task item: Annotate the compound C[C@@H](NCCCc1cccc(C(F)(F)F)c1)c1cccc2ccccc12 with its measured viability (% of control).
Reply: 110%

Task item: Identify measured viability (% of control) associated with CCc1c2c(nc3ccc(OC(=O)N4CCC(N5CCCCC5)CC4)cc13)-c1cc3c(c(=O)n1C2)COC(=O)[C@]3(O)CC
Reply: 8.86%

Task item: Look up and state reported viability (% of control) for N[C@@H](C(=O)N[C@@H]1C(=O)N2C(C(=O)O)=C(Cl)CS[C@H]12)c1ccccc1
Reply: 108%

Task item: Provide viability (% of control) value for the following compound: CCCCOc1ccc(CC(=O)NO)cc1
Reply: 29%

Task item: Specify viability (% of control) for COc1ccc2cc3[n+](cc2c1OC)CCc1cc2c(cc1-3)OCO2 and stop.
Reply: 7.43%

Task item: Read off the recorded viability (% of control) for CCCN[C@H]1CCc2nc(N)sc2C1
Reply: 78%

Task item: Give a short answer stating reported viability (% of control) for CCCCS(=N)(=O)CCC(N)C(=O)O (stereo not given) .
Reply: 34.2%

Task item: Identify the reported viability (% of control) for the following entry. CO[C@@H]1[C@@H](OC(N)=O)[C@@H](O)[C@H](Oc2ccc3c(O)c(NC(=O)c4ccc(O)c(CC=C(C)C)c4)c(=O)oc3c2C)OC1(C)C
Reply: 44%

Task item: Could you please provide reported viability (% of control) for COc1ccc(-c2ccc3cc(C(=O)O)ccc3c2)cc1C12CC3CC(CC(C3)C1)C2 ? Thanks!
Reply: 112%

Task item: Return viability (% of control) for the following compound: COc1cc2ncnc(Nc3cccc(Cl)c3)c2cc1OC
Reply: 39.5%

Task item: Provide only the value of recorded viability (% of control) for C1CCC(C(CC2CCCCN2)C2CCCCC2)CC1 (stereo not given)
Reply: 5.18%

Task item: Recall and state the measured viability (% of control) for CCOc1cc(N)c(Cl)cc1C(=O)NCC1CN(Cc2ccc(F)cc2)CCO1 (stereo not given) .
Reply: 98.6%

Task item: Find the measured viability (% of control) of O=C(NCC1CN(c2ccc(N3CCOCC3=O)cc2)C(=O)O1)c1ccc(Cl)s1 (stereo not given) and report it.
Reply: 48.9%

Task item: Give the reported value of viability (% of control) for this record: Cc1onc(-c2ccccc2Cl)c1C(=O)N[C@@H]1C(=O)N2[C@@H]1SC(C)(C)[C@@H]2C(=O)O
Reply: 97.4%

Task item: Quote viability (% of control) reported for O=NN(CCCl)C(=O)NC1CCCCC1 please.
Reply: 102%

---

# testMethodNotes: Drug repurposing screens with cells derived from glioblastoma tumor samples (AID 1345199); further: on the % scale 0 is the no-effect control and ±100 the full control effect; nearly all actives have a fitted effect of over 40% in size
# assayContext: GBM patient neurospheres viability, ATP luminescence, 48 h; at 46.1 µM (top of the series); tumour line C
# Protocol: CD133+ cells were isolated from GBM patient biopsies and cultured as neurospheres. Neurospheres from four patients were used to screen the NCATS pharmaceutical collection (NPC) library of approved drugs and bioactive compounds. […] The neurospheres were incubated with drugs for 48 hours in 1536-well format, then assayed with an ATP content cell viability assay. […]
Results filed as inconclusive are left out.
readoutLabel: activity, negative = cell killing (%)
The reply should contain only the number, in %.

Task item: Please give the documented activity, negative = cell killing of CN(CCOc1ccc(CC2SC(=O)NC2=O)cc1)c1ccccn1 (configuration not stated)
Reply: 15.3

Task item: Return value of activity, negative = cell killing for input O=c1oc2c(O)c(O)cc3c(=O)oc4c(O)c(O)cc1c4c23 , no commentary.
Reply: -1.64

Task item: Please report the measured activity, negative = cell killing for CC(C)C1CCC(C(=O)N[C@H](Cc2ccccc2)C(=O)O)CC1 (some centres not stated)
Reply: -13.4

Task item: Provide only the value of recorded activity, negative = cell killing for O=C(N[C@H](CO)[C@H](O)c1ccc([N+](=O)[O-])cc1)C(Cl)Cl
Reply: -18.2

Task item: // Input: NC(=O)N1c2ccccc2CC(=O)c2ccccc21 . Output its activity, negative = cell killing only.
Reply: -9.41

Task item: Could you please provide reported activity, negative = cell killing for O=S(=O)(c1cccc2cnccc12)N1CCCNCC1 ? Thanks!
Reply: -21.1

Task item: Specify measured activity, negative = cell killing for Clc1ccccc1CN1CCc2sccc2C1 .
Reply: 4.64

---

# testMethodNotes: Quantitative High-Throughput drug screen in 47 multiple myeloma cell lines against the NCATS MIPE library collection: OCIMY5_PLB cell viability assay (AID 1918988); further: nearly all actives have a fitted effect of over 65% in size
# assayContext: OCI-MY5 myeloma viability, ATP luminescence, 48 h; series mostly up to 45.8 µM
Results filed as inconclusive are left out. The source made the active and inactive calls. Calls come from the whole dose curve; as a rule, active = well fitted cell-killing curve with a large enough effect; inconclusive = small, poorly fitted or top-dose-only effect, or effect the other way; inactive = no such curve, though single readings can be large or run the other way.
Form entry, call: pick from active, inactive

Task item: How did this test come out for CC[C@H](NC(C)C)[C@H](O)c1ccc(O)c2[nH]c(=O)ccc12 ?
Reply: active

Task item: // param item: CCOC(=O)[C@H](CCc1ccccc1)N[C@H]1CCc2ccccc2N(CC(=O)O)C1=O ; yields the recorded call
Reply: active

Task item: Hello, I am checking results. What call was entered for CO[C@@H]1[C@@H](OC(N)=O)[C@@H](O)[C@H](Oc2ccc3c(O)c(NC(=O)c4ccc(O)c(CC=C(C)C)c4)c(=O)oc3c2C)OC1(C)C ?
Reply: active

Task item: // return assay outcome for Nc1nc(=S)c2[nH]cnc2[nH]1
Reply: active

Task item: Dear colleague, could you share the recorded outcome for COc1nc(N)nc2c1ncn2[C@@H]1O[C@H](CO)[C@@H](O)[C@@H]1O when you have a moment?
Reply: inactive

Task item: Record request — test call for C[C@@H](CN1CC(=O)NC(=O)C1)N1CC(=O)NC(=O)C1
Reply: inactive

Task item: Would you mind telling me which call this test gave CNC(=O)c1cc(Oc2ccc(NC(=O)Nc3ccc(Cl)c(C(F)(F)F)c3)cc2)ccn1 ?
Reply: active

Task item: What did this assay record as the result for CC1=CC(=O)c2ccccc2C1=O ?
Reply: active

Task item: Recorded test outcome, item O[C@@H](CNC[C@H](O)[C@H]1CCc2cc(F)ccc2O1)[C@@H]1CCc2cc(F)ccc2O1
Reply: active

Task item: Please state the recorded outcome for this compound: CCOC(=O)[C@H](CCc1ccccc1)N[C@H]1CS[C@H](c2cccs2)CN(CC(=O)O)C1=O
Reply: active

Task item: Short answer needed: outcome of this test for CC(C)Cn1cnc2c(N)nc3ccccc3c21 ?
Reply: active

Task item: # outcome recorded in this test, key = C[C@@H]1C[C@H]2[C@@H]3CCC4=CC(=O)C=C[C@]4(C)[C@@]3(Cl)[C@@H](O)C[C@]2(C)[C@@]1(OC(=O)c1ccco1)C(=O)CCl
Reply: active

Task item: Assay result, entry Cn1c(=O)c2c(ncn2CC(O)CO)n(C)c1=O (centres undefined) — outcome?
Reply: inactive

Task item: Per the assay record, what outcome was assigned to Cc1ccc(S(=O)(=O)N[C@@H](Cc2ccccc2)C(=O)CCl)cc1 ?
Reply: active
